Kindly state EC50 for each of the entries shown.
- experimental.system: T1, nAra h 6 (peanut, UniProt Q647G9 22-145)
- T1 construct: Bought natural allergen; also called naturally extracted Ara h 6
- T1 sequence (looked up): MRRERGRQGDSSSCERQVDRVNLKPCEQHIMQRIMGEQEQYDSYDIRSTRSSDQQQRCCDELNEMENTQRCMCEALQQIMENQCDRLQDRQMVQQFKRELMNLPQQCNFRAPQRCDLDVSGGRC
- procedure.text: ELISA, antigen-coated plate
One number for each entry, in ng/mL.

Example entries begin here.
# binder, EC50 (ng/mL)
measured = [
    ("h2F8 (antibody, V domains shown, Recombinant human IgG; also called hMAb 2F8) VH: EVQLVESGGGLVKPGGSLRLSCAASGFIFSDYNMNWVRQAPGKGLEWVSSITRSSRTIYYADSVKGRFTISRDNAKNSLHLQMNSLRDADTAVYYCAREDFDVSTGPYYMDVWGNGTTVIVSS VL: EIVLTQSPGTLSLSPGERATLSCRASQSVSNMFLVWYQQKPGQAPRLLMYGASTRATDIPDRFSGSGSGTDFTLTISRLEPEDFAVYYCQQNGNSPYTFGQGTKLEIK", 3.4),
    ("hm12G10 (antibody, V domains shown, also called 12G10 with mouse Fc; hmMAb 12G10) VH: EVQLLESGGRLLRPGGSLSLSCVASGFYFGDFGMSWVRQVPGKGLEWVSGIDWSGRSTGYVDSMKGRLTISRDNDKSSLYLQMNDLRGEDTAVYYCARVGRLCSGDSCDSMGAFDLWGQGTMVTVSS VL: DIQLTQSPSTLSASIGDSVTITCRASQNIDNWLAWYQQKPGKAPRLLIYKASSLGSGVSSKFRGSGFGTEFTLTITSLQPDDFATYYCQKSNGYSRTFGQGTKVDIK", 27.8),
    ("h4B2 (antibody, V domains shown, Recombinant human IgG; also called hMAb 4B2) VH: QVQLQEAGPRLVKPSQTLSVTCTVSGASITIGGYYWSWIRQHPGKGLEWMGYIYSNGRTYYNPSLKSRIAMSIDTSKNQFSLKLTSVTAADTAIYFCAREAWETPLWGQGTLITVSS VL: DIQMTQSPSSLSASVGDRVTITCQANQDIVNSLNWFQHKPGTAPKVLIYDASKLETGVPSRFSGSGSGTHFTFTISGLQPEDFATYFCQQYENLPHTFGQGTKLEIR", 7),
    ("h32B10 (antibody, V domains shown, Recombinant human IgG; also called hMAb 32B10) VH: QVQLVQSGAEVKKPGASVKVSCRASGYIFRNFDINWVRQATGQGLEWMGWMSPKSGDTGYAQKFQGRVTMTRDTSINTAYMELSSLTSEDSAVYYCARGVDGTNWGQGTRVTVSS VL: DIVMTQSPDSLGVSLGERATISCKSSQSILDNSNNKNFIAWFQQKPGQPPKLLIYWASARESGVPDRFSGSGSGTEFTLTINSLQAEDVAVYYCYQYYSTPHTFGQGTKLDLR", 7),
]

Now turn to the next binder.
Given item h37D5 (antibody, V domains shown, Recombinant human IgG; also called hMAb 37D5) VH: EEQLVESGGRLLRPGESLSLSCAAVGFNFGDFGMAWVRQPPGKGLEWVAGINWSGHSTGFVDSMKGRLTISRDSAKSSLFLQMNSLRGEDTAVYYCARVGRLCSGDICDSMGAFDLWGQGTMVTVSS VL: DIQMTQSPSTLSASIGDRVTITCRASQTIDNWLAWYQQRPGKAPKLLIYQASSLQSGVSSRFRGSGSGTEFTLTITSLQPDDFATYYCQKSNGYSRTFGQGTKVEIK , the value recorded as its EC50 is 22.1

Ref: patent US20200199207A1
